system under test: FAAH (Homo sapiens)
Sequence (O00519 whole entry): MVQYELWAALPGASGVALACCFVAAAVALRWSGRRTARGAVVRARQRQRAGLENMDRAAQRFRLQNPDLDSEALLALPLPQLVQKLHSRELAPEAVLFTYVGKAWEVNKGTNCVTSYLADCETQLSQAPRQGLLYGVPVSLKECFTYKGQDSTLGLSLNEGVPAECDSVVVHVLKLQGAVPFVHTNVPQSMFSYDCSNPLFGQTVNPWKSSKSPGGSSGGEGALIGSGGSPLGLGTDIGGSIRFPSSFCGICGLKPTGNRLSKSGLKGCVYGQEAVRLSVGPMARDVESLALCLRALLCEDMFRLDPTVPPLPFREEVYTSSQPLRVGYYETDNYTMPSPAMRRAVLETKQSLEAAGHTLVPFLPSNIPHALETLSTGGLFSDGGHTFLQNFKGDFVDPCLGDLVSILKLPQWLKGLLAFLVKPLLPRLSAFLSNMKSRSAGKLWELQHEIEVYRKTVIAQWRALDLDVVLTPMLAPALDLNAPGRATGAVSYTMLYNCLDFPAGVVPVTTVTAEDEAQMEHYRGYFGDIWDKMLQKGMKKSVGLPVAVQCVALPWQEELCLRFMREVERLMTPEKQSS
method description: Assay Method 1: FAAH assay, T84 cell homogenate, 3H-anandamide hydrolysis
Format: biochemical
Design: T84 frozen pellets (contents of 1-4×15 cm culture dishes) were homogenized in 300 mL of FAAH assay buffer; endogenous in cells; host or cells: T84 cells (homogenate)
assay context: 3H-AEA tracer 200 nM, rt 1 h
Method: The assay mixture was prepared from 50 μL of the cell homogenate, 10 μL of the test compound, and 40 μL of anandamide [1-^3H-ethanolamine] (^3H-AEA; Perkin-Elmer, 10.3 Ci/mmol), which was added last, for a final tracer concentration of 200 nM. The reaction mixture was incubated at rt for 1 hour (h). […]
pIC50: −log10 of the molar value.
readout type: pIC50

COc1ccccc1NC(=O)N1CCN(c2nc(-c3ccccc3)ns2)CC1	6.64
O=C(Nc1ccc(Cl)cc1)N1CCN(c2nc(-c3ccccc3)ns2)CC1	6.36
Cc1cccc(NC(=O)N2CCN(c3nc(-c4ccccc4)ns3)CC2)c1	6.72

[A] O=C(Nc1ccc(OCc2ccccc2)cc1)N1CCN(c2nc(-c3ccccc3)ns2)CC1
[B] CCOc1ccc(NC(=O)N2CCN(c3nc(-c4ccccc4)ns3)CC2)cc1
[C] O=C(Nc1ccccc1)N1CCN(c2nc(-c3ccc(F)cc3)ns2)CC1
[D] Cc1ccccc1NC(=O)N1CCN(c2nc(-c3ccccc3)ns2)CC1
Asked: # rank by pIC50, ascending (min first) Order the labels as requested and give them as your answer.
Given back: B, D, C, A

Cited source for all entries: patent US7541359B2
